abundance fitness overview
B1: POU domain, class 6, transcription factor 2, residues 609 to 663; numbered along this chain, P78424 (parent)
chain: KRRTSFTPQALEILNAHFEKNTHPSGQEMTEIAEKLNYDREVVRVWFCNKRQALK

Variants of: B1
Test: abundance fitness (aPCA) (normalised: wild type 0, dead -1); higher = more abundant; growth selection in yeast, the domain comes from the species named
Conditions: Homo sapiens
# respond with the number and nothing more

>  <variant-label>
R44H

>  <assay-result>
-0.199

$$$$
>  <variant-label>
T4G

>  <assay-result>
-0.089

$$$$
>  <variant-label>
E19S

>  <assay-result>
0.073

$$$$
>  <variant-label>
E31I

>  <assay-result>
-0.534

$$$$
>  <variant-label>
R2M

>  <assay-result>
0.064

$$$$

Item `T30A` has what recorded abundance fitness? -0.046

Item `E19M` has what recorded abundance fitness? -0.013

Item `T4C` has what recorded abundance fitness? -0.058

Item `H17F` has what recorded abundance fitness? -0.056

Item `N37R` has what recorded abundance fitness? -0.063

Item `S5M` has what recorded abundance fitness? -0.127
